measured-on: human CD28 (human, UniProt P10747 19-220)
test-name: cell-based or functional assay
property-measured: Luciferase assay (EC50) (nM)

(P) 1h-79-8 (other) VL: DIQMTQSPSSLSASVGDRVTITCRASQPIGHSLGWYQQKPGKAPKLLIYWASTLQSGVPSRFSGSGSGTDFTLTISSLQPEDFATYYCQQMLRTPFMFGQGTKVEIKR
(Q) 1h-99-246 (other) VH: EVQLLESGGGLVQPGGSLRLSCAASGFTFDSANMSWARQAPGKGLEWVSWIEASGGQTFYADSVKGRFTISRDNSKNTLYLQMNSLRAEDTAVYYCAKSPFGPLYGFDYRGQGTLVTVSS
Which value of Luciferase assay (EC50) is smaller, the one for P or the one for Q ? State the label of the item chosen.
Q
